FYI, the data here is from patent US20250222003A1.

# Measurement Description: Pharmacokinetics of Compound A, phase I dose-escalation part (plasma)
# Format: in vivo, human
# Measurement Parameters: human, plasma, oral, 20 mg, C1D8, 20 mg BID (n = 3), median
Metric: Tmax (min)
Answer format: numeric, min implied, no suffix.

Req: Quick check: Tmax of `C=CCN1CC(=O)N2[C@@H](Cc3ccc(O)cc3F)C(=O)N(Cc3cccc(N4CC(N5CCN(CC)CC5)C4)n3)C[C@@H]2N1C(=O)NCc1ccccc1` ?
Resp: 30

###

# Measurement Description: Pharmacokinetics of Compound A, phase I dose-escalation part (plasma)
# Format: in vivo, human
# Measurement Parameters: human, plasma, oral, 20 mg, C1D8, 20 mg BID (n = 3), geometric mean; read-out: AUC (0-tau), ss
Metric: AUC (ng·h/mL)
Answer format: numeric, ng·h/mL implied, no suffix.

Req: Quick check: AUC of `C=CCN1CC(=O)N2[C@@H](Cc3ccc(O)cc3F)C(=O)N(Cc3cccc(N4CC(N5CCN(CC)CC5)C4)n3)C[C@@H]2N1C(=O)NCc1ccccc1` ?
Resp: 866

###

# Measurement Description: Pharmacokinetics of Compound A, phase I dose-escalation part (plasma)
# Assay type: in vivo, human
# Measurement Parameters: human, plasma, oral, 120 mg, C1D8, 120 mg BID (n = 8), based on n = 7 subjects, geometric mean; read-out: C max, ss
# Experimental: In the treatment phase, Compound A (an oral formulation containing Compound A) is administered to the subjects of administration in one cycle of 28 days. […] In the dose-escalation part, blood was collected from the subjects of administration according to the schedule shown in Table 5, and the pharmacokinetics of Compound A was evaluated. […]
Metric: Cmax (ng/mL)
Answer format: numeric, ng/mL implied, no suffix.

Req: Quick check: Cmax of `C=CCN1CC(=O)N2[C@@H](Cc3ccc(O)cc3F)C(=O)N(Cc3cccc(N4CC(N5CCN(CC)CC5)C4)n3)C[C@@H]2N1C(=O)NCc1ccccc1` ?
Resp: 751

###

# Measurement Description: Pharmacokinetics of Compound A, phase I dose-escalation part (plasma)
# Type: in vivo, human
# Measurement Parameters: human, plasma, oral, 120 mg, C1D8, 120 mg BID (n = 8), based on n = 7 subjects, geometric mean; read-out: AUC (0-tau), ss
Metric: AUC (µg·h/mL)
Answer format: numeric, µg·h/mL implied, no suffix.

Req: Quick check: AUC of C=CCN1CC(=O)N2[C@@H](Cc3ccc(O)cc3F)C(=O)N(Cc3cccc(N4CC(N5CCN(CC)CC5)C4)n3)C[C@@H]2N1C(=O)NCc1ccccc1 [Compound A] ?
Resp: 2.46

###

# Measurement Description: Pharmacokinetics of Compound A, phase I dose-escalation part (plasma)
# Format: in vivo, human
# Measurement Parameters: human, plasma, oral, 100 mg, C1D1, 100 mg BID (n = 6), geometric mean; read-out: AUC(0-12 h)
Metric: AUC(0-t) (ng·h/mL)
Answer format: numeric, ng·h/mL implied, no suffix.

Req: Quick check: AUC(0-t) of `C=CCN1CC(=O)N2[C@@H](Cc3ccc(O)cc3F)C(=O)N(Cc3cccc(N4CC(N5CCN(CC)CC5)C4)n3)C[C@@H]2N1C(=O)NCc1ccccc1` ?
Resp: 1420

###

# Measurement Description: Pharmacokinetics of Compound A, phase I dose-escalation part (plasma)
# Format: in vivo, human
# Measurement Parameters: human, plasma, oral, 120 mg, C1D1, 120 mg BID (n = 8, incl. additional cases), geometric mean; read-out: AUC(0-12 h)
# Experimental: In the treatment phase, Compound A (an oral formulation containing Compound A) is administered to the subjects of administration in one cycle of 28 days. […] In the dose-escalation part, blood was collected from the subjects of administration according to the schedule shown in Table 5, and the pharmacokinetics of Compound A was evaluated. […]
Metric: AUC(0-t) (ng·h/mL)
Answer format: numeric, ng·h/mL implied, no suffix.

Req: Quick check: AUC(0-t) of C=CCN1CC(=O)N2[C@@H](Cc3ccc(O)cc3F)C(=O)N(Cc3cccc(N4CC(N5CCN(CC)CC5)C4)n3)C[C@@H]2N1C(=O)NCc1ccccc1 [Compound A] ?
Resp: 1910
